Entries and their measured Kd follow.
tested-target: T1, human GFRAL (analyte in Biacore assays) (human, UniProt Q6UXV0 19-351, limits assumed)
T1 construct: injected in solution over captured antibody; also called hGFRAL
T1 sequence: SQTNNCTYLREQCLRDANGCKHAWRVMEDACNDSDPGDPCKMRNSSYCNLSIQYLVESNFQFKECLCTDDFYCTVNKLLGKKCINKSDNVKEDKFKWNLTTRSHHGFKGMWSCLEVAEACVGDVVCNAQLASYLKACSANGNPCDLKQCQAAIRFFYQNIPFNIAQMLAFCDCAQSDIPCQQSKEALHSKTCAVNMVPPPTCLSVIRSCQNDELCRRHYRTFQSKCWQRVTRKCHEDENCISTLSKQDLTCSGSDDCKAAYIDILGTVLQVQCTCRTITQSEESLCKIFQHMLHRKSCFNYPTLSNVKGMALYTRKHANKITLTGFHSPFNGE
assay-method-text: Biacore SPR, antibody captured, human GFRAL injected
Just the number please, in nM, no unit attached.

>>> numeric_readout("humanized anti-GFRAL antibody HC-344a/LC-344c (antibody, IgG1, V domains shown, humanized 3P10) VH: QVQLVQSGAEVKKPGSSVKVSCKASGYTFTDYGVIWVRQAPGQGLEWMGWINTYTGEPTYADDLKGRVTITADESTSTAYMELSSLRSEDTAVYYCARRYGPEDIDYWGQGTTVTVSS VL: DIVLTQSPLSLPVTLGQPASISCRASESVDNYGISFMSWFQQRPGQSPRLLIYAASHQGSGVPDRFSGSGSGTDFTLKISRVEAEDVGVYFCLQSKEVPWTFGGGTKVEIK")
0.012

Please examine the following record next.
Lookup: Which Kd value belongs to humanized anti-GFRAL antibody HC-375d/LC-375c (antibody, IgG1, V domains shown, humanized 5F12) VH: QVQLVQSGAEVKKPGSSVKVSCKASGYTFTDYYINWVRQAPGQGLEWIGRIYPGNGNTYHNEKFKGRATLTADKSTSTAYMELSSLRSEDTAVYYCAREGLYYDYDRYFDYWGQGTLVTVSS VL: DIQMTQSPSSLSASVGDRVTITCRASESVDTYGNSFMHWYQQKPGKAPKLLIYLASNLESGVPSRFSGSGSGTDFTLTISSLQPEDFATYYCHQNNEDPPAFGGGTKVEIK ?
Found: 0.075
